system: Trichoderma virens ATCC 9645; experiment: growth yield (OD600) with compound + IPBC relative to untreated control; higher = less growth inhibition; conditions: compound concentration: 100 uM; IPBC concentration: 200 ng/ml; 72 h
Counter-ions that a name gives are not always drawn. Hit rate of the full screen: of about 1,300 compounds, about 130 (10%) showed an effect of 50% or more. The full list was thinned out, with strong results kept by preference.
# maps each entry to its growth yield
# output: bare number, implied unit %

Check out these entries, answers already filled in.
CN(C)C(=O)Oc1cccc([N+](C)(C)C)c1 [Neostigmine bromide] + CCCCNC(=O)OCC#CI [3-iodo-2-propynyl butylcarbamate (IPBC)] :: 92.2
NC(CO)C(=O)NNCc1ccc(O)c(O)c1O (configuration not stated) [Benserazide hydrochloride] + CCCCNC(=O)OCC#CI [3-iodo-2-propynyl butylcarbamate (IPBC)] :: 75.2
CN(C)[C@@H]1C(O)=C(C(N)=O)C(=O)[C@@]2(O)C(O)=C3C(=O)c4c(O)ccc(Cl)c4[C@@](C)(O)[C@H]3C[C@@H]12 [Chlortetracycline hydrochloride] + CCCCNC(=O)OCC#CI [3-iodo-2-propynyl butylcarbamate (IPBC)] :: 84.3
CCCCC[C@H](O)/C=C/[C@@H]1[C@@H](C/C=C\CCCC(=O)O)[C@@H](O)C[C@H]1O [Dinoprost trometamol] + CCCCNC(=O)OCC#CI [3-iodo-2-propynyl butylcarbamate (IPBC)] :: 94.1
CCCCCNC(=N)N/N=C/c1c[nH]c2ccc(OC)cc12 [Tegaserod maleate] + CCCCNC(=O)OCC#CI [3-iodo-2-propynyl butylcarbamate (IPBC)] :: 5.24

Query: Give the value of growth yield reported for the following: CN[C@H](CC(C)C)C(=O)N[C@H]1C(=O)N[C@@H](CC(N)=O)C(=O)N[C@H]2C(=O)N[C@H]3C(=O)N[C@H](C(=O)N[C@H](C(=O)O)c4cc(O)cc(O)c4-c4cc3ccc4O)[C@H](O)c3ccc(c(Cl)c3)Oc3cc2cc(c3O[C@@H]2O[C@H](CO)[C@@H](O)[C@H](O)[C@H]2O[C@H]2C[C@](C)(N)[C@H](O)[C@H](C)O2)Oc2ccc(cc2Cl)[C@H]1O [Vancomycin hydrochloride] + CCCCNC(=O)OCC#CI [3-iodo-2-propynyl butylcarbamate (IPBC)]
Reply: 98.3

Query: Give the value of growth yield reported for the following: COc1ccc2[nH]cc(CCNC(C)=O)c2c1 [Melatonin] + CCCCNC(=O)OCC#CI [3-iodo-2-propynyl butylcarbamate (IPBC)]
Reply: 92.3

----------
system: Trichoderma virens ATCC 9645; experiment: growth yield (OD600) with compound + IPBC relative to untreated control; higher = less growth inhibition; settings: compound concentration: 100 uM; IPBC concentration: 200 ng/ml; 72 h
Counter-ions that a name gives are not always drawn. Hit rate of the full screen: of about 1,300 compounds, about 130 (10%) showed an effect of 50% or more. This excerpt belongs to a sample that is enriched for strong results.
# maps each entry to its growth yield
Kindly report the value followed by its unit.

CN(C)CCN(Cc1ccc(Cl)cc1)c1ccccn1 [Chloropyramine hydrochloride] + CCCCNC(=O)OCC#CI [3-iodo-2-propynyl butylcarbamate (IPBC)] :: 92.3%
COc1ccc(CN(CCN(C)C)c2ccccn2)cc1 [Pyrilamine maleate] + CCCCNC(=O)OCC#CI [3-iodo-2-propynyl butylcarbamate (IPBC)] :: 92.4%
C[C@H](Cc1cc2c(c(C(N)=O)c1)N(CCCO)CC2)NCCOc1ccccc1OCC(F)(F)F [Silodosin] + CCCCNC(=O)OCC#CI [3-iodo-2-propynyl butylcarbamate (IPBC)] :: 92.6%

Query: Give the value of growth yield reported for the following: N[C@@H]1CONC1=O [D-cycloserine] + CCCCNC(=O)OCC#CI [3-iodo-2-propynyl butylcarbamate (IPBC)]
Reply: 90.3%
